- Target: wild-type α7 nicotinic acetylcholine receptor (Homo sapiens, UniProt P36544)
- Construct: expressed in transfected cells; host or cells: Xenopus laevis oocytes
- Sequence (P36544 23-502): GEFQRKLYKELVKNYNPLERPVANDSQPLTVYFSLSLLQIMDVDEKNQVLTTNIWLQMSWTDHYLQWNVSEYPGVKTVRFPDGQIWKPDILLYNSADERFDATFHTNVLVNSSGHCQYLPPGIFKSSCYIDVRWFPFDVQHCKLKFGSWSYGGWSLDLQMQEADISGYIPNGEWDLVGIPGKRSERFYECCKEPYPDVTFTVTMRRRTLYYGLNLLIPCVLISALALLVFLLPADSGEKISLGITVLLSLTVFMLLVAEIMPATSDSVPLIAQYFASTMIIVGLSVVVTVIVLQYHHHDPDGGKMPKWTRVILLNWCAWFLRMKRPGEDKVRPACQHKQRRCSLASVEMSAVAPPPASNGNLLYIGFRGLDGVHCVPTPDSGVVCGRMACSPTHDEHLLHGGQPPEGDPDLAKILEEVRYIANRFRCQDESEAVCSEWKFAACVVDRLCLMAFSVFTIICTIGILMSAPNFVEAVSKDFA
- Protocol: Two electrode voltage clamp in Xenopus oocytes, agonist and modulator responses
- Type: cell-based
- Protocol conditions: Agonist potency, two electrode voltage clamp, Xenopus oocyte: EC50 (95% C.I.), peak current amplitude
Experimental readout: pEC50
Entry type: numeric. Quantity: pEC50, the -log10 of concentration in molar units.

# lookup: `C[N+](C)(C)CCO` on wild-type α7 nicotinic acetylcholine receptor (Homo sapiens, UniProt P36544), pEC50 = 2.95

###

- Target: Chimera 1 (Homo sapiens, UniProt P36544, M226I/T225V)
- Sequence (P36544 with tags, fused parts or gaps T225V/M226I): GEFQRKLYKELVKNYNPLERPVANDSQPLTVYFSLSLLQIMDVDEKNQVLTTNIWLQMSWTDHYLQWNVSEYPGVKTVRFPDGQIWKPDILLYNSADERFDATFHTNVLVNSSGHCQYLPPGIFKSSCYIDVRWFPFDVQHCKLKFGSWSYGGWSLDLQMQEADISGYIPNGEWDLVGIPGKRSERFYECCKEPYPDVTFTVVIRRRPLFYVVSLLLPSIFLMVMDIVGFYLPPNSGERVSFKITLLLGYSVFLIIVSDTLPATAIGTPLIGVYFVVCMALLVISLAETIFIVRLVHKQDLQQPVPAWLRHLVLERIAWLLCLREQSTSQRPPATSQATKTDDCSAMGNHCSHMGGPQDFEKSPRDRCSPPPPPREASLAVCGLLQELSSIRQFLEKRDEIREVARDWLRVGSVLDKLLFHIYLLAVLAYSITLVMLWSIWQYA
- Protocol: Membrane potential imaging (FLIPR-FMP) in HEK-293 cells
- Type: cell-based
- Parameters: expressed in transfected cells
- Protocol conditions: read-out: Agonist concentration-response EC50; control (no modulator)
Experimental readout: pEC50
Formally, pEC50 is defined as -log10 of the concentration c, with c in mol/L.

// field: pEC50; key: `O=C(N[C@H]1CN2CCC1CC2)c1ccc(Cl)cc1` ; value = 6.46
